- MEASUREMENT TARGET: G/T mismatch-specific thymine DNA glycosylase (Homo sapiens);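 also: human TDG cleavage of quenched duplex DNA oligonucleotides coupled to APE1, strand release read as fluorescence at 594 nm, inhibition of TDG activity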
- CONDITION CONTEXT: Compound Concentration 10.0 uM, Hit No
- Description: Inhibition of TDG by quantifying inhibition of TDG-mediated cleavage and dissociation of quenched duplex DNA oligonucleotides, measured as fluorescence at 594 nm. To generate a functional strand incision and increase turn-over this assay is coupled to APE1.
Criterion: inhibition meeting or surpassing 80%. Met: rule met. Not met: rule not met.

Cc1c(F)cccc1NC(=O)Nc1ccc(Cl)c(S(=O)(=O)[C@H]2CCCNC2)c1O    rule not met
O=C(O)CCCc1cc2cc(Cl)ccc2n1S(=O)(=O)c1ccc2ncsc2c1    rule met
CCOc1ccn(-c2ccc(F)cc2)c(=O)c1C(=O)Nc1ccc(Oc2ccnc(N)c2Cl)c(F)c1    rule not met

[in] Is reported inhibition greater than or equal to 80% here: O=C(c1cc(C2CC2)on1)N(C1CCCCC1)C1CCCCC1
[out] rule not met

[in] C=C1/C(=C\C=C2/CCC[C@]3(C)[C@@H]([C@H](C)CCCC(C)(C)O)CC[C@@H]23)C[C@@H](O)C[C@@H]1O ?
[out] rule not met
